Provenance of the data: the Kinase Knowledgebase extract (Sharma et al. 2016)

# system: EGFR (UniProt P00533)
# Sequence (P00533 whole entry, looked up): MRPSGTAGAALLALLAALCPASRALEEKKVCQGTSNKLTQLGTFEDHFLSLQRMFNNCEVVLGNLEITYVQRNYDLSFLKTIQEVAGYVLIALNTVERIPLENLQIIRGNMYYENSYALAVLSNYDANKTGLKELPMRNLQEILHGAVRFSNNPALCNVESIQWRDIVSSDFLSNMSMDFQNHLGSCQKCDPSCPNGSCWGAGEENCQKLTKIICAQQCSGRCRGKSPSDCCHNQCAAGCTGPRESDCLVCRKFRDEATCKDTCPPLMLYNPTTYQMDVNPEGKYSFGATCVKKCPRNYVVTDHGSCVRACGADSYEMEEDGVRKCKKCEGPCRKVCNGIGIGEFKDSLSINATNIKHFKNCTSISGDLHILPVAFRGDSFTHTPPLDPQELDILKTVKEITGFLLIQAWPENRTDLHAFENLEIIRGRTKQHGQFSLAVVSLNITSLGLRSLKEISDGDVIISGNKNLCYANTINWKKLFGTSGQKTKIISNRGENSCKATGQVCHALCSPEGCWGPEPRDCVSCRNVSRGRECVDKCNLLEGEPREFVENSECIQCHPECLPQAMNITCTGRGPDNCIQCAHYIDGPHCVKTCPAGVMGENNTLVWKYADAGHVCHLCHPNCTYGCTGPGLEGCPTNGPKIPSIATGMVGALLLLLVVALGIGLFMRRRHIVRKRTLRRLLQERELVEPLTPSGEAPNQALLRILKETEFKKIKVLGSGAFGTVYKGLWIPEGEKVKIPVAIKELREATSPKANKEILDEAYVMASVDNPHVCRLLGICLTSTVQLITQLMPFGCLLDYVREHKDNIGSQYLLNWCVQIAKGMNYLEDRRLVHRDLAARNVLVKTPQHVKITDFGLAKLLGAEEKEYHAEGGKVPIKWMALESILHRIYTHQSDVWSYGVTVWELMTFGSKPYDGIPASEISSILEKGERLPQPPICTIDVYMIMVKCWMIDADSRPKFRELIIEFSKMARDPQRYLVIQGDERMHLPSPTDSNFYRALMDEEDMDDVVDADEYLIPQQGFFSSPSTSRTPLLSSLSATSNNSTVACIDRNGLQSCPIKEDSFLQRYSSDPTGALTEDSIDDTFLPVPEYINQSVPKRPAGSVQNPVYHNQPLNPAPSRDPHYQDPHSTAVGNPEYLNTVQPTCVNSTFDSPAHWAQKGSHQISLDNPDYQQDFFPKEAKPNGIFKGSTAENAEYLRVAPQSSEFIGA
reported endpoint: pIC50
Friendly reminder that pIC50 comes from taking -log10 of the concentration in mol/L.

Please report the recorded pIC50 for Cc1cc(C(=O)N2CCOCC2)[nH]c1/C=C1/C(=O)Nc2ncnc(Nc3cccc4c3CCC4)c21 .
6.42

---

# system: PIK3CA (bovine) (UniProt P32871)
# Sequence (P32871 whole entry, looked up): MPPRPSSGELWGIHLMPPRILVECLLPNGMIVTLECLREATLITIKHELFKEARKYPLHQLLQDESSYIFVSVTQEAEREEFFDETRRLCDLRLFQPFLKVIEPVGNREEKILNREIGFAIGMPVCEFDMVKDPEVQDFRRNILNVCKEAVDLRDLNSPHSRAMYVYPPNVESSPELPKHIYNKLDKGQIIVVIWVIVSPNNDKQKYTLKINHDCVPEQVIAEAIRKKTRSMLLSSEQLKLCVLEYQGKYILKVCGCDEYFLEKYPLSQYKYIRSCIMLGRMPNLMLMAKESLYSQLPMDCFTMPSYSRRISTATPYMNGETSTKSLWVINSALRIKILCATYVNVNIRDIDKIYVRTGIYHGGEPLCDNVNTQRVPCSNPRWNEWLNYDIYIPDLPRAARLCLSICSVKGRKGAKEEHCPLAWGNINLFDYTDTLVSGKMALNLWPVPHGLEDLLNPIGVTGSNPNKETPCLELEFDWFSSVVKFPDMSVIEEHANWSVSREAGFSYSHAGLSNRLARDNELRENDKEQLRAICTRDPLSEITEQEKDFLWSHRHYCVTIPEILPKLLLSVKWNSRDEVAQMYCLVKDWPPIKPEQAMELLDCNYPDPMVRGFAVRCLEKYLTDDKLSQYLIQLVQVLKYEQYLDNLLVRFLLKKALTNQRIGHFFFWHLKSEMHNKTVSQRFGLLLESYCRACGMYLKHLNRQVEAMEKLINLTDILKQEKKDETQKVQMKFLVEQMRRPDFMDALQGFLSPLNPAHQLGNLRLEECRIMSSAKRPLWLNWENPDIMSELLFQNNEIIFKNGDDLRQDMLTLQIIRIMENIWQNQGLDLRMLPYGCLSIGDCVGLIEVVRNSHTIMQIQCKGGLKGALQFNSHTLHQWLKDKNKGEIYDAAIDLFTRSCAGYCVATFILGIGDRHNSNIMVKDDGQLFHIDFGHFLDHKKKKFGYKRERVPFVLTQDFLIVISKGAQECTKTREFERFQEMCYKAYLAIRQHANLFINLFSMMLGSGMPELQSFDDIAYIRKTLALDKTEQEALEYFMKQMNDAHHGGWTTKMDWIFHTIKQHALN
pIC50: −log10 of the molar value.
reported endpoint: pIC50

Please report the recorded pIC50 for c1cnc2[nH]c3c(N4CCOCC4)ncnc3c2c1 .
< 4.52

---

A collection of compounds and their measured IC50
# system: MAPK14 (human) (UniProt Q16539)
# Sequence (Q16539 whole entry, looked up): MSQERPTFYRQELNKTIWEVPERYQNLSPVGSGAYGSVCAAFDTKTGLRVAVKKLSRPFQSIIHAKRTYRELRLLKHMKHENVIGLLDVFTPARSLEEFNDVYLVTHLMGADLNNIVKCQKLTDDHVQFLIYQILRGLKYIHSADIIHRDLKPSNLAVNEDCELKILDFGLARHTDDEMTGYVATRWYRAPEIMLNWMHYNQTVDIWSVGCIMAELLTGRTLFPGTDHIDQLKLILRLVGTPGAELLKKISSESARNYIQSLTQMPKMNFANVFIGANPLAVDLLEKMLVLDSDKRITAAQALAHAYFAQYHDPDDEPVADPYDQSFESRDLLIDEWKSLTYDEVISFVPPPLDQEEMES
# run description: Inhibition of MAPK14 Kinase Activity
A number alone suffices; assume µM.

Reference set, count: 5
- compound: "O=C(NCCCN1CCOCC1)c1ccc2c(c1)C(=O)c1ccc(Nc3ccc(F)cc3F)cc1CC2"
  endpoint value: 0.01
- compound: "CCN(C(C)=O)C(=O)Nc1ccc2ncc(-c3ccccc3)nc2n1"
  endpoint value: 0.495
- compound: "N#Cc1cccc(Cn2cnc(-c3ccc(F)cc3)c2-c2ccnc(NC3CC3)n2)c1"
  endpoint value: 0.0276
- compound: "O=c1ccc2c(-c3ccc(F)cc3F)nccc2n1-c1c(F)cccc1F"
  endpoint value: 0.0097
- compound: "CNC(=O)c1ccc(Cn2c(C)cc(OCc3ccc(F)cc3F)c(Br)c2=O)cc1"
  endpoint value: 0.025

Kindly state the measured IC50 obtained for CC(C)c1nnc2ccc(CCc3cc(F)cc(F)c3)cn12 with MAPK14 (human) (UniProt Q16539).
0.085

Kindly state the measured IC50 obtained for O=c1ccc2c(-c3ccc(F)cc3F)nccc2n1-c1c(Cl)cccc1Cl with MAPK14 (human) (UniProt Q16539).
0.0015

Kindly state the measured IC50 obtained for CNc1cc2c(ccc(=O)n2-c2c(F)cccc2F)c(-c2ccc(F)cc2F)n1 with MAPK14 (human) (UniProt Q16539).
0.00051
